Task for the reader: assign each of the following molecules its reported dCas9 with SSAP activity (normalized).
test system: gene editing with dCas9; assay: Screen of 322 new SSAP proteins, gene editing activity with dCas9 (Table 5); assay type: cell-based; settings: normalized
Just the number, please, no unit attached.

In plain terms, SSAP_304: SEQ ID NO: 473; Desulfobacteraceae bacterium (protein, listed as Desulfobacteraceae bacterium) ATPNTPTTTDAGDFLKKSEKSLKNYAVRKYDFTSFLKSAMIAINDNTTLSECLRTEAGKKSLFNAMRYAATTGLSLNPQEGKAALIGYKNKAGEMVLNYQIMKNGLIDLALSSGKVEFVTADLVRANDEFSIKKSASGDDYSFSPAIRDRGEVIGFVAALKLKGSATYVKWMSTEEVAEFRDKYSSMYKNRPDASPWTHSFNGMGIKTVMKALLRSVSISPDVDAAVKSDDYIEAEFTVHGTTADDAVTQLQTPSKPVKAEEGQGELL has a documented dCas9 with SSAP activity (normalized) of −0.886

In plain terms, SSAP_244: SEQ ID NO: 413; Nicoletella semolina (protein, listed as Nicoletella semolina) LKNADPQSVFNAACMAATLNLPIQNGLGFAYIVPYQNKKEKKTEAQFQLGYKGLIQLAQRSGQFKRLVAVPVYEKQLIAEDPINGFEFDWKQKPENGEKPIGYYAYFKLLNDFTAELYMTTHEVDEHAQRYSQTYRTYLDKKSKGQWASSVWADNFEAMALKTVMKLLLSKQAPLSVEMQQAVLADQAVVKNVETNEFSYVDNQIEEAEYTELKVSTDIFEKCKQSILNKETTLQELCDSGYEFSQEQYAELEKLEVE has a documented dCas9 with SSAP activity (normalized) of −0.819
